B1: library; numbered along this chain (parent)
chain: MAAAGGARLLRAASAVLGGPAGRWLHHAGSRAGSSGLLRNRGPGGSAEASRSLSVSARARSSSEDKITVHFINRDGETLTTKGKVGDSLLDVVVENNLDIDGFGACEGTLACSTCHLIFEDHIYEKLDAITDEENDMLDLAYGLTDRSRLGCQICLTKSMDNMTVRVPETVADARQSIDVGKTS

# Variants of: B1
# procedure_details: scaled log2 fold change in cell abundance, elesclomol vs control (0 = silent mean, 1 = nonsense mean) (scaled log2 ratio); higher = higher viability under elesclomol (loss of FDX1 cuproptosis function);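 note: variant abundance is its share of total variant reads in each endpoint sample, from next-generation sequencing of the integrated ORF PCR-amplified out of genomic DNA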
# test_context: with HEK293T FDX1 KO; elesclomol 40 nM; glucose 10 mM; 11 days
measurement_label: scaled log2 fold change
Please reply with the number alone, leaving off any unit.

Enquiry: Please list scaled log2 fold change recorded for the variant A49H
Return: 0.441

Enquiry: Please list scaled log2 fold change recorded for the variant A59N
Return: 0.117

Enquiry: Please list scaled log2 fold change recorded for the variant G104R
Return: 0.682

Enquiry: Please list scaled log2 fold change recorded for the variant I118C
Return: -0.183

Enquiry: Please list scaled log2 fold change recorded for the variant I123L
Return: -0.00641

Enquiry: Please list scaled log2 fold change recorded for the variant G143D
Return: 0.59

Enquiry: Please list scaled log2 fold change recorded for the variant D128S
Return: 1.1

Enquiry: Please list scaled log2 fold change recorded for the variant F119Q
Return: 0.755

Enquiry: Please list scaled log2 fold change recorded for the variant S56M
Return: 0.0191

Enquiry: Please list scaled log2 fold change recorded for the variant D91P
Return: 0.179

Enquiry: Please list scaled log2 fold change recorded for the variant V69C
Return: 0.782

Enquiry: Please list scaled log2 fold change recorded for the variant P43L
Return: 1.08

Enquiry: Please list scaled log2 fold change recorded for the variant S34G
Return: -0.277

Enquiry: Please list scaled log2 fold change recorded for the variant A4V
Return: -0.566

Enquiry: Please list scaled log2 fold change recorded for the variant A3I
Return: -0.0748

Enquiry: Please list scaled log2 fold change recorded for the variant E95I
Return: -0.228

Enquiry: Please list scaled log2 fold change recorded for the variant D179Y
Return: -0.339

Enquiry: Please list scaled log2 fold change recorded for the variant V165H
Return: 0.873

Enquiry: Please list scaled log2 fold change recorded for the variant L117V
Return: 0.867

Enquiry: Please list scaled log2 fold change recorded for the variant M160R
Return: 0.049

Enquiry: Please list scaled log2 fold change recorded for the variant R166F
Return: 0.799

Enquiry: Please list scaled log2 fold change recorded for the variant N40W
Return: -0.235
